experiment: Stability tests in rat plasma (QC samples, HPLC-MS); conditions: three freeze-thaw cycles, rat plasma, spiked 2 ng/mL, n=5
Binarize Stability: Measured at 2 ng/mL; below is 1, at or above is 0.

For orientation, consider the following solved cases.
| COMPOUND | CLASS_NAME |
| --- | --- |
| C[C@H]1COC2=C1C(=O)C(=O)c1c2ccc2c1CCCC2(C)C [CTS, cryptotanshinone] | 1 |
| CC(C)=CCC[C@](C)(O[C@@H]1O[C@H](CO[C@@H]2O[C@H](CO)[C@@H](O)[C@H](O)[C@H]2O)[C@@H](O)[C@H](O)[C@H]1O)[C@H]1CC[C@]2(C)[C@@H]1[C@H](O)C[C@@H]1[C@@]3(C)CC[C@H](O[C@@H]4O[C@H](CO)[C@@H](O)[C@H](O)[C@H]4O[C@@H]4O[C@H](CO)[C@@H](O)[C@H](O)[C@H]4O)C(C)(C)[C@@H]3CC[C@]12C [Rb1, ginsenoside Rb1] | 1 |
| Cc1coc2c1C(=O)C(=O)c1c-2ccc2c1CCCC2(C)C [TS IIA, tanshinone (TS) IIA] | 0 |
| CC(C)=CCC[C@](C)(O[C@@H]1O[C@H](CO)[C@@H](O)[C@H](O)[C@H]1O)[C@H]1CC[C@]2(C)[C@@H]1[C@H](O)C[C@@H]1[C@@]3(C)CC[C@H](O[C@@H]4O[C@H](CO)[C@@H](O)[C@H](O)[C@H]4O[C@@H]4O[C@H](CO)[C@@H](O)[C@H](O)[C@H]4O)C(C)(C)[C@@H]3CC[C@]12C [Rd, ginsenoside Rd] | 1 |
| Cc1coc2c1C(=O)C(=O)c1c-2ccc2c(C)cccc12 [TS I, tanshinone I] | 0 |

Bench note: check whether CC(C)=CCC[C@](C)(O[C@@H]1O[C@H](CO)[C@@H](O)[C@H](O)[C@H]1O)[C@H]1CC[C@]2(C)[C@@H]1[C@H](O)C[C@@H]1[C@@]3(C)CC[C@H](O)C(C)(C)[C@@H]3[C@@H](O[C@@H]3O[C@H](CO)[C@@H](O)[C@H](O)[C@H]3O[C@@H]3OC[C@@H](O)[C@H](O)[C@H]3O)C[C@]12C [R1, notoginsenoside R1] shows Stability: Measured below 2 ng/mL
0

* * *

compounds and their reported MRT last
test: Multiple component PK study in rat plasma after p.o. GDDP (HPLC-MS); conditions: Sprague-Dawley, rat, plasma, po, 0.4 g/kg
Note: unit h is implicit; provide only the numeric part.

| COMPOUND | U | MRT last |
| --- | --- | --- |
| Cc1coc2c1C(=O)C(=O)c1c-2ccc2c1CCCC2(C)C | h | 5.4 |
| CC(C)=CCC[C@](C)(O[C@@H]1O[C@H](CO[C@@H]2O[C@H](CO)[C@@H](O)[C@H](O)[C@H]2O)[C@@H](O)[C@H](O)[C@H]1O)[C@H]1CC[C@]2(C)[C@@H]1[C@H](O)C[C@@H]1[C@@]3(C)CC[C@H](O[C@@H]4O[C@H](CO)[C@@H](O)[C@H](O)[C@H]4O[C@@H]4O[C@H](CO)[C@@H](O)[C@H](O)[C@H]4O)C(C)(C)[C@@H]3CC[C@]12C [Rb1, ginsenoside Rb1] | h | 11.4 |
| CC(C)=CCC[C@](C)(O[C@@H]1O[C@H](CO)[C@@H](O)[C@H](O)[C@H]1O)[C@H]1CC[C@]2(C)[C@@H]1[C@H](O)C[C@@H]1[C@@]3(C)CC[C@H](O[C@@H]4O[C@H](CO)[C@@H](O)[C@H](O)[C@H]4O[C@@H]4O[C@H](CO)[C@@H](O)[C@H](O)[C@H]4O)C(C)(C)[C@@H]3CC[C@]12C [Rd, ginsenoside Rd] | h | 8.88 |
| C[C@H]1COC2=C1C(=O)C(=O)c1c2ccc2c1CCCC2(C)C | h | 0.23 |

# evaluate next
"Cc1coc2c1C(=O)C(=O)c1c-2ccc2c(C)cccc12" yielded MRT last of 9.93

* * *

experiment: Stability tests in rat plasma (QC samples, HPLC-MS); details: 24h in auto-sampler vials, spiked 1600 ng/mL, n=5
PARAMETER: Stability: RE (%)
Reply numerically in %, unit not repeated.

Consider the following illustrative entries.
| COMPOUND | REPORTED_MEASUREMENT |
| --- | --- |
| Cc1coc2c1C(=O)C(=O)c1c-2ccc2c1CCCC2(C)C | 7.17 |
| CC(C)=CCC[C@](C)(O[C@@H]1O[C@H](CO[C@@H]2O[C@H](CO)[C@@H](O)[C@H](O)[C@H]2O)[C@@H](O)[C@H](O)[C@H]1O)[C@H]1CC[C@]2(C)[C@@H]1[C@H](O)C[C@@H]1[C@@]3(C)CC[C@H](O[C@@H]4O[C@H](CO)[C@@H](O)[C@H](O)[C@H]4O[C@@H]4O[C@H](CO)[C@@H](O)[C@H](O)[C@H]4O)C(C)(C)[C@@H]3CC[C@]12C [Rb1, ginsenoside Rb1] | -3.71 |
| Cc1coc2c1C(=O)C(=O)c1c-2ccc2c(C)cccc12 | -2.34 |
| CC(C)=CCC[C@](C)(O[C@@H]1O[C@H](CO)[C@@H](O)[C@H](O)[C@H]1O)[C@H]1CC[C@]2(C)[C@@H]1[C@H](O)C[C@@H]1[C@@]3(C)CC[C@H](O)C(C)(C)[C@@H]3[C@@H](O[C@@H]3O[C@H](CO)[C@@H](O)[C@H](O)[C@H]3O[C@@H]3OC[C@@H](O)[C@H](O)[C@H]3O)C[C@]12C [R1, notoginsenoside R1] | 1.19 |
| Cc1cccc2c3c(ccc12)C1=C(C(=O)C3=O)[C@@H](C)CO1 [DHTS I, dihydrotanshinone I] | 2.78 |

Summary for this compound, CC(C)=CCC[C@](C)(O[C@@H]1O[C@H](CO)[C@@H](O)[C@H](O)[C@H]1O)[C@H]1CC[C@]2(C)[C@@H]1[C@H](O)C[C@@H]1[C@@]3(C)CC[C@H](O[C@@H]4O[C@H](CO)[C@@H](O)[C@H](O)[C@H]4O[C@@H]4O[C@H](CO)[C@@H](O)[C@H](O)[C@H]4O)C(C)(C)[C@@H]3CC[C@]12C [Rd, ginsenoside Rd] : Stability: RE is -6.90

Item: "C[C@H]1COC2=C1C(=O)C(=O)c1c2ccc2c1CCCC2(C)C" | Stability: RE: 15.77

* * *

experiment: Stability tests in rat plasma (QC samples, HPLC-MS); details: three freeze-thaw cycles, rat plasma, spiked 400 ng/mL, n=5
PARAMETER: Stability: Measured (ng/mL)
Number in ng/mL, nothing else.

// recorded Stability: Measured for "Cc1coc2c1C(=O)C(=O)c1c-2ccc2c1CCCC2(C)C" : 468.67

Stability: Measured in this record for "C[C@H]1COC2=C1C(=O)C(=O)c1c2ccc2c1CCCC2(C)C" : 457.79

CC(C)=CCC[C@](C)(O[C@@H]1O[C@H](CO)[C@@H](O)[C@H](O)[C@H]1O)[C@H]1CC[C@]2(C)[C@@H]1[C@H](O)C[C@@H]1[C@@]3(C)CC[C@H](O[C@@H]4O[C@H](CO)[C@@H](O)[C@H](O)[C@H]4O[C@@H]4O[C@H](CO)[C@@H](O)[C@H](O)[C@H]4O)C(C)(C)[C@@H]3CC[C@]12C [Rd, ginsenoside Rd] yielded Stability: Measured of 438.01

* * *

assay: Multiple component PK study in rat plasma after p.o. GDDP (HPLC-MS); conditions: GDDP 0.8 g/kg p.o.; at 5, 10, 15, 30, 45, or 60 min; LOD 0.5–0.7 ng/mL
PARAMETER: detection in rat plasma

Below, each entry is followed by its recorded detection in rat plasma result.
| COMPOUND | REPORTED_MEASUREMENT |
| --- | --- |
| Cc1coc2c1C(=O)C(=O)c1c-2ccc2c(C)cccc12 | could be detected |
| CC(C)=CCC[C@](C)(O[C@@H]1O[C@H](CO)[C@@H](O)[C@H](O)[C@H]1O)[C@H]1CC[C@]2(C)[C@@H]1[C@H](O)C[C@@H]1[C@@]3(C)CC[C@H](O[C@@H]4O[C@H](CO)[C@@H](O)[C@H](O)[C@H]4O[C@@H]4O[C@H](CO)[C@@H](O)[C@H](O)[C@H]4O)C(C)(C)[C@@H]3CC[C@]12C [Rd, ginsenoside Rd] | could be detected |
| C[C@H]1COC2=C1C(=O)C(=O)c1c2ccc2c1CCCC2(C)C | could be detected |
| CC(C)=CCC[C@](C)(O[C@@H]1O[C@H](CO)[C@@H](O)[C@H](O)[C@H]1O)[C@H]1CC[C@]2(C)[C@@H]1[C@H](O)C[C@@H]1[C@@]3(C)CC[C@H](O)C(C)(C)[C@@H]3[C@@H](O[C@@H]3O[C@H](CO)[C@@H](O)[C@H](O)[C@H]3O[C@@H]3OC[C@@H](O)[C@H](O)[C@H]3O)C[C@]12C [R1, notoginsenoside R1] | could be detected |
| O=Cc1ccc(O)c(O)c1 | could be detected |

// sample CC(C)=CCC[C@](C)(O[C@@H]1O[C@H](CO[C@@H]2O[C@H](CO)[C@@H](O)[C@H](O)[C@H]2O)[C@@H](O)[C@H](O)[C@H]1O)[C@H]1CC[C@]2(C)[C@@H]1[C@H](O)C[C@@H]1[C@@]3(C)CC[C@H](O[C@@H]4O[C@H](CO)[C@@H](O)[C@H](O)[C@H]4O[C@@H]4O[C@H](CO)[C@@H](O)[C@H](O)[C@H]4O)C(C)(C)[C@@H]3CC[C@]12C [Rb1, ginsenoside Rb1] , its detection in rat plasma was could be detected

Measured detection in rat plasma, Cc1cccc2c3c(ccc12)C1=C(C(=O)C3=O)[C@@H](C)CO1 [DHTS I, dihydrotanshinone I] : could be detected

"Cc1coc2c1C(=O)C(=O)c1c-2ccc2c1CCCC2(C)C" yielded detection in rat plasma of could be detected

Entry O=C(O)C(O)Cc1ccc(O)c(O)c1 (centres unmarked) , detection in rat plasma reported as could be detected

The reported detection in rat plasma of the compound CC(C)=CCC[C@](C)(O[C@@H]1O[C@H](CO)[C@@H](O)[C@H](O)[C@H]1O)[C@H]1CC[C@]2(C)[C@@H]1[C@H](O)C[C@@H]1[C@@]3(C)CC[C@H](O)C(C)(C)[C@@H]3[C@@H](O[C@@H]3O[C@H](CO)[C@@H](O)[C@H](O)[C@H]3O[C@@H]3O[C@@H](C)[C@H](O)[C@@H](O)[C@H]3O)C[C@]12C [Re, ginsenoside Re] was could be detected

Form field detection in rat plasma, entry "O=C(O)c1ccc(O)c(O)c1" : could be detected

Entry source: paper PMC6308302
